As shown below, each of these compounds has a reported Kd value.
# TEST SYSTEM: hPDI b’x (Homo sapiens)
# Construct: There is also a short 19 amino acid x-linker region between the b’ and a’ domains; made in house; host or cells: E. coli
# Sequence (P07237 230-368 limits assumed): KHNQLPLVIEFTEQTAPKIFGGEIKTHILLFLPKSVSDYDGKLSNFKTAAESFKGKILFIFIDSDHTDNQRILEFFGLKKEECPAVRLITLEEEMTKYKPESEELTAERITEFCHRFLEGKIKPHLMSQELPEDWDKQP
# EXPERIMENT SUMMARY: Protein-observe 15N,1H-HSQC NMR titration (chemical shift perturbation, Kd)
# Type: binding
# CONDITION NOTES: 15N,1H-HSQC; constant 0.25 mM 15N b’x, varying peptide (ratios 1:4 to 2.5:1); 310 K (37 °C); 20 mM sodium phosphate pH 7.0, 50 mM NaCl, 5% D6-DMSO; average of individual residue fits; ± standard error of Levenberg-Marquardt fit; read-out: Dissociation constant (Kd), PROTEIN 15N/1H Tracked
# Description: NMR titrations were carried out by collecting ^19F NMR spectra (at a constant peptide concentration of 0.15 mM) and ^15N,^1H-HSQC spectra (at a constant protein concentration of 0.25 mM). […] Amide chemical shifts were calculated in Hz as √[(0.6Δ^1H)^2 + (Δ^15N)^2]. Dissociation constants (Kd) for each shifting peak were calculated by plotting the chemical shift perturbation (Hz) against ligand concentration (mM) and fitting the curve to the equation: […]
Non-standard residues stand in square brackets, D forms with d. Residues, ends and D or L forms follow the SMILES beside them. Phe(4-F) = N[C@@H](Cc1ccc(F)cc1)C(=O)O
Give your result in µM as a bare value.

Ask | Can you share its Kd? I mean this compound: C[C@H](N)C(=O)NCC(=O)N[C@@H](CO)C(=O)N[C@@H](CCCCN)C(=O)N[C@@H](CC(N)=O)C(=O)N[C@@H](Cc1ccc(F)cc1)C(=O)N[C@@H](Cc1ccc(F)cc1)C(=O)N[C@@H](Cc1c[nH]c2ccccc12)C(=O)N[C@@H](CCCCN)C(=O)N[C@H](C(=O)N[C@@H](Cc1ccc(F)cc1)C(=O)N[C@H](C(=O)N[C@@H](CO)C(=O)N[C@@H](CO)C(=O)O)[C@@H](C)O)[C@@H](C)O [F1,2,3 Δ-som] (H-AGSKN[Phe(4-F)][Phe(4-F)]WKT[Phe(4-F)]TSS-OH)
Reply | 48

Ask | Then C[C@H](N)C(=O)NCC(=O)N[C@@H](CO)C(=O)N[C@@H](CCCCN)C(=O)N[C@@H](CC(N)=O)C(=O)N[C@@H](Cc1ccc(F)cc1)C(=O)N[C@@H](Cc1ccccc1)C(=O)N[C@@H](Cc1c[nH]c2ccccc12)C(=O)N[C@@H](CCCCN)C(=O)N[C@H](C(=O)N[C@@H](Cc1ccccc1)C(=O)N[C@H](C(=O)N[C@@H](CO)C(=O)N[C@@H](CO)C(=O)O)[C@@H](C)O)[C@@H](C)O [F1 Δ-som] (H-AGSKN[Phe(4-F)]FWKTFTSS-OH) ?
Reply | 61

Ask | Then C[C@H](N)C(=O)NCC(=O)N[C@@H](CO)C(=O)N[C@@H](CCCCN)C(=O)N[C@@H](CC(N)=O)C(=O)N[C@@H](Cc1ccccc1)C(=O)N[C@@H](Cc1ccc(F)cc1)C(=O)N[C@@H](Cc1c[nH]c2ccccc12)C(=O)N[C@@H](CCCCN)C(=O)N[C@H](C(=O)N[C@@H](Cc1ccccc1)C(=O)N[C@H](C(=O)N[C@@H](CO)C(=O)N[C@@H](CO)C(=O)O)[C@@H](C)O)[C@@H](C)O [F2 Δ-som] (H-AGSKNF[Phe(4-F)]WKTFTSS-OH) ?
Reply | 51

Ask | Then C[C@H](N)C(=O)NCC(=O)N[C@@H](CO)C(=O)N[C@@H](CCCCN)C(=O)N[C@@H](CC(N)=O)C(=O)N[C@@H](Cc1ccccc1)C(=O)N[C@@H](Cc1ccccc1)C(=O)N[C@@H](Cc1c[nH]c2ccccc12)C(=O)N[C@@H](CCCCN)C(=O)N[C@H](C(=O)N[C@@H](Cc1ccc(F)cc1)C(=O)N[C@H](C(=O)N[C@@H](CO)C(=O)N[C@@H](CO)C(=O)O)[C@@H](C)O)[C@@H](C)O [F3 Δ-som] (H-AGSKNFFWKT[Phe(4-F)]TSS-OH) ?
Reply | 84
